- experimental-details: growth suppression of yeast trafficking mutant, preliminary HTS, modulators of trafficking downstream of Golgi apparatus project, 1536-format plate, OD 615 nm (AID 637); further: test concentration not given here
- protocol-conditions: yeast transport mutant growth, absorbance 615 nm, 18 h; hits give high values
Each record here notes measured inhibition.

molecule: COC(=O)Oc1c(Br)c(=O)oc2ccccc12
unit-string: %
inhibition: -4.13

molecule: CC(CCc1ccccc1)NCC(O)c1ccc(O)c(C(N)=O)c1 (stereo unspecified)
unit-string: %
inhibition: -3.17

molecule: COc1ccc(-c2oc3ncn(CCN4CCOCC4)c(=N)c3c2-c2ccc(OC)cc2)cc1
unit-string: %
inhibition: -2.55

molecule: CCOc1cc(S(=O)(=O)NCc2ccc3c(c2)OCO3)ccc1F
unit-string: %
inhibition: 4.76

molecule: CCn1nnc(NC(=O)c2ccccc2Br)n1
unit-string: %
inhibition: 2.86

molecule: Cc1occc1C(=O)Nc1cccc2ccccc12
unit-string: %
inhibition: 1.77

molecule: Cc1cnc(NC(=O)C2=C(O)c3ccccc3S(=O)(=O)N2C)s1
unit-string: %
inhibition: -2.83

molecule: O=C(Nc1ccon1)c1cc(-c2ccccc2)nc2ccccc12
unit-string: %
inhibition: -3.27

molecule: Cc1ccc(OCC2Cn3c(nc4c3c(=O)n(C)c(=O)n4C)O2)cc1 (stereo unspecified)
unit-string: %
inhibition: 2.91

molecule: CCCCOC(=O)c1cccc(NC(=O)CC)c1
unit-string: %
inhibition: 13.4

molecule: O=C1c2ccccc2NC(c2cccc(F)c2)N1Cc1ccco1 (stereo unspecified)
unit-string: %
inhibition: -1.64

molecule: CS(=O)(=O)N1CCc2cc(S(=O)(=O)Nc3ccc4oc5c(c4c3)CCCC5)ccc21
unit-string: %
inhibition: 0

molecule: CN1CCC(=C2c3ccccc3C=Cc3ccccc32)CC1
unit-string: %
inhibition: 1

molecule: Cc1[nH]nc(N=CC2=C(O)CC(C)(C)CC2=O)c1-c1ccccc1
unit-string: %
inhibition: 1.09

molecule: Cc1ccc2cc(CN(CCN3CCCC3)C(=O)Nc3ccc(F)cc3)c(=O)[nH]c2c1C
unit-string: %
inhibition: -0.79

molecule: Cc1c(C)c2cc(Cl)c(O)c(CN3CCCCC3)c2oc1=O
unit-string: %
inhibition: 5.57

molecule: CCOC(=O)C1CSC(CC(=O)Nc2ccc(Cl)cc2)C(=O)N1 (stereo unspecified)
unit-string: %
inhibition: -3.64

molecule: CC1=C(C(=O)N2CCOCC2)C(c2ccccc2F)C2=C(CCCC2=O)N1 (stereo unspecified)
unit-string: %
inhibition: 0.91

molecule: COc1cc2c(OC)cccc2cc1C(=O)O
unit-string: %
inhibition: 12.1

molecule: CCCCN1C(=O)C2C(C(=O)Nc3cccc(OC)c3)C3C=CC2(O3)C1C(=O)NC1CCCCC1C (stereo unspecified)
unit-string: %
inhibition: -3.11

molecule: Cc1[nH]nc2c1C1(C(=O)N(Cc3ccc(Cl)cc3)c3ccccc31)C(C#N)=C(N)O2 (stereo unspecified)
unit-string: %
inhibition: 0.18

molecule: N#CCC(=O)Nc1ncn(Cc2ccccc2Cl)n1
unit-string: %
inhibition: 3.82

molecule: CC1CCN(C(=O)c2cc(-c3ccc(Cl)c(Cl)c3)on2)CC1
unit-string: %
inhibition: 0.95

molecule: CC(C)[C@H](NC(=O)NCc1ccc(Cl)cc1)C(=O)O
unit-string: %
inhibition: -4.75

molecule: CC(C)CCNC(=O)NC(=O)CSc1nnc(-c2ccccc2F)n1N
unit-string: %
inhibition: 14.8

molecule: COc1ccc(CN(C(=O)c2ccccc2OC)C2CCS(=O)(=O)C2)cc1 (stereo unspecified)
unit-string: %
inhibition: 9.34

molecule: Cc1ccc(S(=O)(=O)Cn2nnnc2CN(Cc2ccco2)Cc2cccs2)cc1
unit-string: %
inhibition: -7.87

molecule: O=C(Nc1ccc(Cl)c(C(F)(F)F)c1)N1CCCC(O)C1 (stereo unspecified)
unit-string: %
inhibition: -6.23

molecule: COCCN(Cc1cc2cccc(C)c2[nH]c1=O)C(=O)c1ccccc1
unit-string: %
inhibition: 1.09

molecule: CCCCNC(=O)C(C#N)c1nc2ccccc2nc1N1CCCC1 (stereo unspecified)
unit-string: %
inhibition: -4.29

molecule: COc1ccc(S(=O)(=O)NCCCN2CCOCC2)c2ccccc12
unit-string: %
inhibition: -0.18

molecule: Cc1cc(=O)[nH]c(SCC(=O)NCc2ccco2)n1
unit-string: %
inhibition: -2.38

molecule: CS(=O)(=O)N1CCC(C(=O)NCCC2=CCCCC2)CC1
unit-string: %
inhibition: -1.11

molecule: Cc1ccccc1NC(=O)C1CCC(C)(C(=O)O)C1(C)C (stereo unspecified)
unit-string: %
inhibition: -7.3

molecule: Cc1cc(NC(=O)c2ccc(Cl)cc2)no1
unit-string: %
inhibition: 18.2

molecule: CC(=O)NC1=NC(=O)/C(=C/N2CCCCC2)S1
unit-string: %
inhibition: -2.22

molecule: CC1(C)SC2[C@H](NC(=O)C(NC(=O)N3CCNC3=O)c3ccccc3)C(=O)N2C1C(=O)O (stereo partly specified)
unit-string: %
inhibition: 2.67

molecule: Cn1c(Cl)cnc1C1CC(=O)c2cc(Cl)ccc2O1 (stereo unspecified)
unit-string: %
inhibition: 3.64

molecule: O=C(CN1C(=O)CCSc2ccccc21)Nc1ccc2c(c1)OCO2
unit-string: %
inhibition: -4.13

molecule: COc1cccc(NC(=O)c2ccccc2NS(C)(=O)=O)c1
unit-string: %
inhibition: -3.45

molecule: CCCNC(=O)NC1C(NC(=O)NCCC)N(C)C(=O)N1C (stereo unspecified)
unit-string: %
inhibition: -0.49

molecule: COc1cccc2cc(C(=O)N3CCc4ccccc43)c(=O)oc12
unit-string: %
inhibition: 0.63

molecule: COc1ccc(/C=N/n2c(SC)nnc2-c2ccccc2)cc1C
unit-string: %
inhibition: 9.27

molecule: CC1CCC(NC(=O)C2CCN(c3cnccn3)CC2)CC1 (stereo unspecified)
unit-string: %
inhibition: -2.7

molecule: COc1cc2c(cc1OC)C(/C(C#N)=N\O)=NC(C)(C)C2
unit-string: %
inhibition: 2

molecule: CCn1cc(C(=O)NCCN(C)CCc2ccccc2)c(=O)c2cc(S(=O)(=O)N(C)C)ccc21
unit-string: %
inhibition: 12.6
